// provenance: ChEMBL document CHEMBL4390672

# measurement-target: Adenosine receptor A3 (Homo sapiens, UniProt P0DMS8)
# Sequence (P0DMS8 whole entry): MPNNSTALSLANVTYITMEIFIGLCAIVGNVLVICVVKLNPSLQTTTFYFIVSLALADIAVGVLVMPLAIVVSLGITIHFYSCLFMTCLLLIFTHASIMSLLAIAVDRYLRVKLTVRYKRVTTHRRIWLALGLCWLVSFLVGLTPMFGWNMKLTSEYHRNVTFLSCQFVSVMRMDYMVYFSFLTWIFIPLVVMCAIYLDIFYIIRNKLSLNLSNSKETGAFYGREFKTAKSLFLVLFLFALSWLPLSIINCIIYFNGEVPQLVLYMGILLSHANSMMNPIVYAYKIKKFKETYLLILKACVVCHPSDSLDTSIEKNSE
# test-details: Irreversible displacement of [3H]PSB11 from human A3 adenosine receptor expressed in CHO cell membranes measured up to 240 mins by scintillation spectrometric method
# conditions: in the assay text read “Displacement” for “Irreversible displacement”
property: Ki (nM)

[
  {
    "molecule": "CCCn1c(=O)c2c(nc3cc(OC)ccn32)n(CCCNC(=O)c2ccc(S(C)(=O)=O)cc2)c1=O",
    "readout-value": 525
  }
]
